- Measurement description: Human HepG2 cell viability assay in 384 well format
- Type: toxicity, cell-based
- Parameters: dose 125 nL, time 70.5 hour; concentration not given beside the values
- Protocol conditions: HepG2 cells, read-out: Inhibition
Attribute measured: cytotoxicity at 70.5 h (%)
Numbers only; they are read as %.

Please give the measured cytotoxicity at 70.5 h for this molecule: O=C(NC1CCC1)[C@@H]1CC[C@@H]2[C@@H](CCN2CCc2ccccc2)O1 -13.9

How about this molecule: COc1cc(N2C[C@H]3CCC[C@@H](CN4CCOCC4)[C@H]3C2)ncn1 -8.48

How about this molecule: CS(=O)(=O)NCC1(O)CCCN(C(=O)CCn2cc(Cl)cn2)CC1 (stereo unspecified) -1.38

How about this molecule: CN1CC[C@H]2[C@H](C[C@@H](Cn3cncn3)N2c2nccs2)C1 -8.05

How about this molecule: Cc1cccc(-c2nnn3c2COC(CNCc2nccs2)C3)c1 (stereo unspecified) -3.21

How about this molecule: O=c1n(CCNCc2ccc3ccccc3c2)nc2ccccn12 -0.105

How about this molecule: COc1ccc2c(c1)C(C(=O)N(C)CCn1ccnc1C)CC(=O)N2 (stereo unspecified) -3.22

How about this molecule: Cc1cc(C)cc(N(C)S(=O)(=O)c2cc(C(=O)O)cs2)c1 -6.25

How about this molecule: O=C(NCc1cccs1)NCC1(O)CCc2ccccc2C1 (stereo unspecified) -5.04

How about this molecule: COC(=O)c1cc(OCC2CCC2)cc(C(=O)NCC(C)(C)O)c1 -4.36

How about this molecule: CCOc1ccnc(N2CCCN(c3nc(CC)ns3)CC2)n1 -2.91
